Value source: patent US7105663B2

For each record, write down the corresponding IC50.
Test system: LPS induced TNF-α release from human monocytes
Test: LPS induced TNF-α release from human monocytes
Assay type: cell-based
Conditions: Monocyte, n = 6

## Task What does the record list as IC50 for `COc1cc2c(cc1OC)-c1c/c(=N\c3c(C)cc(C)cc3C)n(CCNC(N)=O)c(=O)n1CC2` ?
## Result 7.5 nM

## Task What does the record list as IC50 for `COc1ccc([C@H](Cc2ccncc2)c2ccccc2)cc1OC1CCCC1` ?
## Result 92 nM
